Test: qHTS assay for small molecule agonists of the antioxidant response element (ARE) signaling pathway (AID 651741); for activation: % of control where 0% means no effect
Conditions: HepG2 ARE-bla reporter, beta-lactamase FRET ratio, 16 h; series mostly up to 96 µM
Results filed as inconclusive are left out. Activity calls are given as the source filed them. Calls come from the whole dose curve; as a rule, active = well fitted activation curve with a large enough effect in the signal ratio; inconclusive = small, poorly fitted or top-dose-only effect, or effect the other way, or a change in a side signal; inactive = flat fitted curve, though single readings scatter; the % refers to the signal ratio.
Please state which outcome applies, choosing from active, inactive

# compound, answer-label
rows = [
    ("O=C=NCCCCCCN=C=O", "inactive"),
    ("CCO[Si](CCC#N)(OCC)OCC", "inactive"),
    ("O=c1[nH]sc2ccccc12", "active"),
    ("Brc1ccc(Br)c(Br)c1", "inactive"),
    ("CCN(Cc1cccc(S(=O)(=O)O)c1)c1ccc(C(=C2C=CC(=[N+](CC)Cc3cccc(S(=O)(=O)[O-])c3)C=C2)c2ccccc2)cc1", "active"),
    ("C=C(C)C(=O)OCCOCCOCCOC(=O)C(=C)C", "inactive"),
    ("CCCCCCCCCCCCN", "inactive"),
    ("CCCCCCCCCCCCCc1ccccc1", "inactive"),
]

Continue with the compound presented below.
For `Brc1ccc(Oc2ccc(Br)cc2)cc1` , what call appears in the results of this test?
inactive

###

Test: qHTS assay for small molecule antagonists of peroxisome proliferator-activated receptor delta signaling (AID 588535);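 note: cells co-treated with a PPAR-delta agonist as stimulator during compound exposure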
Details: HEK293T PPARd-UAS-bla, beta-lactamase FRET ratio, 18 h; 460 nm channel
Results filed as inconclusive are left out.
assay-metric: max response (%)
Form entry: value (%) — number only.

Illustrative cases are given below, each with its answer.
# molecule, max response / %
measured = [
    ("CCCCCCCCCCCCCc1ccccc1", 21.6),
    ("C/C=C/C/C=C\\CCCCCCCCOC(C)=O", 15.9),
    ("CCCCCCCCC(=O)O", -26.9),
    ("BrC1CCC(Br)C(Br)CCC(Br)C(Br)CCC1Br (stereo unspecified)", 11.4),
    ("CCCC/C=C\\CCCCCCCCCC=O", -21.9),
    ("CC1(C)C(=O)NC(=O)N1CO", 11.7),
    ("CCOC(=O)C(C)Oc1ccc(Oc2nc3ccc(Cl)cc3o2)cc1 (stereo unspecified)", -2.48),
    ("O=C(Cl)c1ccc(C(=O)Cl)cc1", -9.41),
    ("CC(C)c1cccc(C(C)C)c1", -5.64),
    ("CNc1nc(=O)n(C2CCCCC2)c(=O)n1C", 8.32),
]

Record summary for `CCCCCCCC(=O)OC` : reported max response = 18.8

Record summary for `c1ccc(B(c2ccccc2)c2ccccc2)cc1` : reported max response = -3.44

Record summary for C/C(=C\C(C)CC(C)CC(C)C)C1CC(=O)OC1=O (stereo unspecified) : reported max response = 29.8

###

Target: Peroxisome proliferator-activated receptor alpha (Homo sapiens) (UniProt Q07869)
Sequence (Q07869 whole entry, looked up): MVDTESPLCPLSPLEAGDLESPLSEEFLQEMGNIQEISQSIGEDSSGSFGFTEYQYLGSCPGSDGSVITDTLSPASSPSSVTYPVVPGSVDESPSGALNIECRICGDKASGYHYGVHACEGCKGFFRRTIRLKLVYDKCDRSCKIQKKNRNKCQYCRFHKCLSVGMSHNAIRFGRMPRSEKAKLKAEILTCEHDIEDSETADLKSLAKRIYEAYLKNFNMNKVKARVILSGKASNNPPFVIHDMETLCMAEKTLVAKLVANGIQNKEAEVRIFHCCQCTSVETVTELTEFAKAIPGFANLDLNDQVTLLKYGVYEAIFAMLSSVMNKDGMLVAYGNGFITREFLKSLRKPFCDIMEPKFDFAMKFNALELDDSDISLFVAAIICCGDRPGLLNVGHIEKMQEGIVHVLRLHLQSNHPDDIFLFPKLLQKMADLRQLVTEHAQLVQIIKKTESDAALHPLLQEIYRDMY
Experiment: qHTS assay for small molecule agonists of the peroxisome proliferator-activated receptor alpha (PPARalpha) signaling pathway (AID 651778); note: % of control where 0% means no effect
Details: PathHunter PPARalpha complementation, chemiluminescence, 6 h; stronger effect = higher value
Each entry below lists one item and its recorded max response value.
Form entry: value (%) — number only.

Illustrative cases are given below, each with its answer.
# compound, max response (%)
data = [
    ("C=C[Si](OCCOC)(OCCOC)OCCOC", -0.929),
    ("CCCCCCCCCCCO", 1.65),
    ("C/C(=C\\C(C)CC(C)CC(C)C)C1CC(=O)OC1=O (stereo not drawn)", -0.902),
]

Record summary for `CCCCCCCCCC[N+](C)(C)Cc1ccccc1` : reported max response = 7.43

Record summary for `O=S(=O)(O)c1cc(S(=O)(=O)O)c2c(N=Nc3ccccc3)c(O)ccc2c1` : reported max response = -5.78

Record summary for CCOC(=O)C(C)Oc1ccc(Oc2cnc3cc(Cl)ccc3n2)cc1 (stereo not drawn) : reported max response = 11.2

Record summary for `O=C=NCCCCCCN=C=O` : reported max response = -1.66

Record summary for `O=C(O)CCCCCCCCCCC(=O)O` : reported max response = -1.09

Record summary for CC(COc1ccc(C(C)(C)C)cc1)OS(=O)OCCCl (stereo not drawn) : reported max response = -2.96

Record summary for `CCCCOC(=O)/C=C\C(=O)OCCCC` : reported max response = -0.617

Record summary for `CC(Cl)(Cl)C(=O)OCCOc1cc(Cl)c(Cl)cc1Cl` : reported max response = 6.22

Record summary for `O=C(c1ccc(Cl)cc1)c1ccc(Cl)cc1` : reported max response = -1.26

Record summary for `CCOC(=O)CCCCCCCCC(=O)OCC` : reported max response = -3.28

###

Each entry below lists one item and its recorded max response value.
Experiment: qHTS assay for cell viability of HEK293 cells (AID 743288); note: % is set by controls: 0 for no effect and ±100 for the full control effect; nearly all actives have a fitted effect of over 50% in size
Details: ATP luminescence (CellTiter-Glo), 18 h; stronger effect = lower value
Records with an inconclusive call do not appear.
Form entry: value (%) — number only.

# molecule, max response [%]
measured = [
    ("O=C(O)c1cccc(C(=O)O)c1", -0.837),
    ("C=C(C)C(=O)OCCC[Si](Cl)(Cl)Cl", -10.2),
    ("CCCCCCCCCCCCO", -11.9),
    ("CCC(=O)C1C(=O)CC(C(=O)O)CC1=O (configuration not stated)", 6.24),
    ("CC(C)(C)C1CCC(O)CC1 (configuration not stated)", 1.92),
]

# input for lookup
Record summary for `C[Si](Cl)(Cl)[Si](C)(Cl)Cl` : reported max response = -7.2

###

Each entry below lists one item and its recorded activity change, positive = activation value.
Target: Cytochrome P450 3A4 (Homo sapiens) (UniProt P08684)
Sequence (P08684 whole entry, looked up): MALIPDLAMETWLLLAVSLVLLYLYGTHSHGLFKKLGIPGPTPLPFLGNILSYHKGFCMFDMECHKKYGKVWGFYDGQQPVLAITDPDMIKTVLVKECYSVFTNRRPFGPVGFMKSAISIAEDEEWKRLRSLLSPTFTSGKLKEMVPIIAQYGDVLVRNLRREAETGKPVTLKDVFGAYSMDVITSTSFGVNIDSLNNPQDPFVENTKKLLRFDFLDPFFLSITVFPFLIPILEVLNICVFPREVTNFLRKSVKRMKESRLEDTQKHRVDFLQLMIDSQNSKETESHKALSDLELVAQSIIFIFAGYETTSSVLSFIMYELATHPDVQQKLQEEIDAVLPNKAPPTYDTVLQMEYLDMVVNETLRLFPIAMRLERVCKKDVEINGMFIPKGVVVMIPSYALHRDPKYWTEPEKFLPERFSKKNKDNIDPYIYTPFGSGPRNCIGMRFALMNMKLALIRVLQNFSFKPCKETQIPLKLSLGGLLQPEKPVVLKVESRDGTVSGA
Assay: qHTS Assay for Activators of Cytochrome P450 3A4 (AID 885); note: nearly all actives have a fitted effect of over 65% in size
Details: recombinant CYP3A4, Luciferin-PPXE luminescence, 60 min; series mostly up to 57.1 µM
Active and inactive are the calls of the source. Calls follow the shape of the dose curve; as a rule, active = well fitted activation curve with a large enough effect; inconclusive = small, poorly fitted or top-dose-only effect; inactive = no such curve, though single readings can be large or run the other way.

# molecule, result
data = [
    ("CCOC(=O)OCC1OC(C#Cc2ccc(Br)cc2)C=CC1OC(=O)OCC (stereo not drawn)", "-52.5% [at 11.4 µM] (inactive)"),
]

activity change, positive = activation of COC(=O)C1=C2N(Cc3ccccc3)C(C)=C(C(=O)OC)C(c3ccccc3)N2C(=O)[C@](O)(C(=O)OC)C1 (stereo partly drawn) , assay on Cytochrome P450 3A4 (Homo sapiens) (UniProt P08684), is -51.3% [at 11.4 µM] (inactive)

###

Molecular target: Cytochrome P450 2C19 (Homo sapiens) (UniProt P33261)
Sequence (P33261 whole entry, looked up): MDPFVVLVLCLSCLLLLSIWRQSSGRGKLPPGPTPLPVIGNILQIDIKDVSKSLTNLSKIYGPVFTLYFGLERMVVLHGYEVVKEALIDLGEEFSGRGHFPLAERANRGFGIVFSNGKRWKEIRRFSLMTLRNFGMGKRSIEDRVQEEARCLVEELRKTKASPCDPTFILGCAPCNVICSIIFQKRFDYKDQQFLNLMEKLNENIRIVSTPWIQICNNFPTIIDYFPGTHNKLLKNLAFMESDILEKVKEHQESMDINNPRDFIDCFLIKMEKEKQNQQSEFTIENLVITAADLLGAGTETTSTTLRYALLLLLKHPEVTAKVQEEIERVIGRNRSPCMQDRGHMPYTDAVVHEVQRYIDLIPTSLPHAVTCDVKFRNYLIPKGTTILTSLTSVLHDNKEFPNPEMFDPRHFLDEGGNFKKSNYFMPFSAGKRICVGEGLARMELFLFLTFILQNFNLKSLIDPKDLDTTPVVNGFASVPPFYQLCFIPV
Assay: qHTS Assay for Inhibitors and Substrates of Cytochrome P450 2C19 (AID 899); note: nearly all actives have a fitted effect of over 60% in size
Conditions: recombinant CYP2C19, luciferin-H EGE luminescence; series mostly up to 11.4 µM
Inconclusive results are not listed. Active and inactive are the calls of the source. The call rests on the fitted dose curve; in most records, active means well fitted inhibition curve with a large enough effect; inconclusive means small, poorly fitted or top-dose-only effect; inactive means no such curve, though single readings can be large or run the other way.
Please state which outcome applies, choosing from True (active), False (inactive)

# molecule, answer-label
measured = [
    ("CCOC(=O)[C@]1(C(NC(=O)OC)c2cccc(C)c2)CCCC1=O (stereo partly drawn)", "False"),
    ("O=C(/C=C/c1ccccc1)N1CCCC1CO (stereo not drawn)", "False"),
    ("CO/N=C\\[C@@H](NS(=O)(=O)c1ccc(C)cc1)[C@H](C)/C=C\\CC(=O)OC", "True"),
    ("COC(=O)N(/C=C/c1ccc(OC)cc1)CCc1ccc(OC)c(OC)c1", "True"),
]

For `O=C1/C(=C/c2ccccc2)Oc2ccccc21` , what call appears in the results of this test?
False

For `COc1ccc(/C=C/N(CCc2ccc(OC)c(OC)c2)C(=O)c2ccccn2)cc1` , what call appears in the results of this test?
False

For `COc1ccc(O[C@H]2C=C[C@@H](c3ccccc3)O[C@H]2COC(=O)N2CCCCC2)cc1` , what call appears in the results of this test?
True

For `COc1ccc(/C=C/N(CCc2ccc(OC)c(OC)c2)C(C)=O)cc1` , what call appears in the results of this test?
True

###

Target: Glucocorticoid receptor (Homo sapiens) (UniProt P04150)
Sequence (P04150 whole entry, looked up): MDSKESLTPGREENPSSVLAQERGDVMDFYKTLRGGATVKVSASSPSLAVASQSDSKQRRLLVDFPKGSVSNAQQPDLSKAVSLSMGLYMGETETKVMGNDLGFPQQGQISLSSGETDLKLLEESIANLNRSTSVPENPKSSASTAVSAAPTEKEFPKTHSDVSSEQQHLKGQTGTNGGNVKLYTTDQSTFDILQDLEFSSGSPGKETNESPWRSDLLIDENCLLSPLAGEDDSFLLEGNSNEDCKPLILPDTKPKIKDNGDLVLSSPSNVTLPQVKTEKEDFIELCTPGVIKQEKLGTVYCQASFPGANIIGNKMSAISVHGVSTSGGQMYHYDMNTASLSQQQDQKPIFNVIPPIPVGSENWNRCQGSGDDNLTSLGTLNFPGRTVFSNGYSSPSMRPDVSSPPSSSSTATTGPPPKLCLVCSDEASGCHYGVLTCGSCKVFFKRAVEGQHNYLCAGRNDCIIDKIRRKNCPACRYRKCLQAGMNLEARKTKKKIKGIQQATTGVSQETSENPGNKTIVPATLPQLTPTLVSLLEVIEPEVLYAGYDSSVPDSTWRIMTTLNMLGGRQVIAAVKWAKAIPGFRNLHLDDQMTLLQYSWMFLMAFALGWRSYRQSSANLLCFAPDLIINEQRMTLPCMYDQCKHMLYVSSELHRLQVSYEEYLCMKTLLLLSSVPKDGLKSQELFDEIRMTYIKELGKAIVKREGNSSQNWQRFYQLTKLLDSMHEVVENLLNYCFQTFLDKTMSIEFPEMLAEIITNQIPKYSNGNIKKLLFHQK
Assay: qHTS assay for small molecule agonists of glucocorticoid receptor signaling (AID 588532);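 note: 100% = dexamethasone at 0.1 µM and 0% = DMSO only wells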
Conditions: HeLa MMTV-bla, beta-lactamase ratio, agonist, 18 h; stronger effect = higher value; percent of dexamethasone control, DMSO zero
Inconclusive results are not listed.
assay-metric: activation (%)
Form entry: value (%) — number only.

Illustrative cases are given below, each with its answer.
# compound, output-unit, result-number
data = [
    ("O=C(O)CN(CCO)CCN(CC(=O)O)CC(=O)O", "%", -10.4),
    ("COC(OC)(C(=O)c1ccccc1)c1ccccc1", "%", -8.93),
    ("CCCCCCCC/C=C\\CCCCCCCC(=O)OC", "%", -1.79),
    ("Cn1c(=O)[nH]c(=O)n(C2CCCCC2)c1=O", "%", 12.5),
    ("CCCCCOC(=O)COc1cc(N2C(=O)C3=C(CCCC3)C2=O)c(F)cc1Cl", "%", 3.85),
]

Record summary for `CCc1cccc(C)c1N(C(=O)CS(=O)(=O)O)[C@@H](C)COC` : reported activation = -18.8

Record summary for CCNc1nc(NC(C)CC)nc(OC)n1 (stereo unspecified) : reported activation = -21

// provenance: PubChem BioAssay (NCATS)
